Reference source for all entries: the supplement of paper PMC11414989

Catalogue of mean angular velocity of exposed larvae readings, one per entry.
Tested on: Danio rerio larvae (Tropical 5D)
Protocol: mean angular velocity of exposed larvae, light phase (angular velocity (unit not stated)); higher = more movement
Cond: 3.7 µM, exposure window: 6 hpf to 120 hpf, static, assay age: 120 hpf (5 dpf)
Observable: mean angular velocity of exposed larvae

{"Molecule": "C[Si](C)(C)C(F)(F)C(F)(F)C(F)(F)F", "Target Of Assay": "Danio rerio larvae (Tropical 5D)", "Observable": "mean angular velocity of exposed larvae", "Readout Value": 0.0422}
{"Molecule": "NC(O)(C(F)(F)F)C(F)(F)F", "Target Of Assay": "Danio rerio larvae (Tropical 5D)", "Observable": "mean angular velocity of exposed larvae", "Readout Value": 0.0543}
{"Molecule": "O=S(=O)(O)C(F)(F)C(F)(F)C(F)(F)C(F)(F)C(F)(F)C(F)(F)F", "Target Of Assay": "Danio rerio larvae (Tropical 5D)", "Observable": "mean angular velocity of exposed larvae", "Readout Value": 0.171}
{"Molecule": "NC(=O)C(F)(F)C(F)(F)C(F)(F)C(F)(F)F [Nonafluoropentanamide]", "Target Of Assay": "Danio rerio larvae (Tropical 5D)", "Observable": "mean angular velocity of exposed larvae", "Readout Value": 0.0715}

###

Tested on: Danio rerio larvae (Tropical 5D)
Protocol: mean angular velocity of exposed larvae, dark phase (angular velocity (unit not stated)); higher = more movement
Cond: 0.41 µM, exposure window: 6 hpf to 120 hpf, static, assay age: 120 hpf (5 dpf)
Recorded mean angular velocity of exposed larvae for the following molecules

{"Molecule": "O=S(=O)(O)C(F)(F)C(F)(F)C(F)(F)C(F)(F)C(F)(F)C(F)(F)F", "mean angular velocity of exposed larvae": 0.788}
{"Molecule": "C[Si](C)(C)C(F)(F)C(F)(F)C(F)(F)F", "mean angular velocity of exposed larvae": 0.637}
{"Molecule": "NC(=O)C(F)(F)C(F)(F)C(F)(F)C(F)(F)F [Nonafluoropentanamide]", "mean angular velocity of exposed larvae": 0.731}
{"Molecule": "NC(O)(C(F)(F)F)C(F)(F)F", "mean angular velocity of exposed larvae": 0.552}

###

# mean distance moved of exposed larvae per entry
Tested on: Danio rerio larvae (Tropical 5D)
Protocol: mean distance moved of exposed larvae, dark phase (µm per frame (1/25 s)); higher = more movement
Cond: 3.7 µM, exposure window: 6 hpf to 120 hpf, static, assay age: 120 hpf (5 dpf)

{"Compound": "O=S(=O)(O)C(F)(F)C(F)(F)C(F)(F)C(F)(F)C(F)(F)C(F)(F)F", "mean distance moved of exposed larvae": 22.9}
{"Compound": "NC(O)(C(F)(F)F)C(F)(F)F", "mean distance moved of exposed larvae": 18.8}
{"Compound": "NC(=O)C(F)(F)C(F)(F)C(F)(F)C(F)(F)F [Nonafluoropentanamide]", "mean distance moved of exposed larvae": 12.1}
{"Compound": "C[Si](C)(C)C(F)(F)C(F)(F)C(F)(F)F", "mean distance moved of exposed larvae": 12.9}

###

Quick reference for mean angular velocity of exposed larvae among some molecules
Test system: Danio rerio larvae (Tropical 5D)
Protocol: mean angular velocity of exposed larvae, light phase (angular velocity (unit not stated)); higher = more movement
Cond: 11.1 µM, exposure window: 6 hpf to 120 hpf, static, assay age: 120 hpf (5 dpf)

{"Molecule": "O=S(=O)(O)C(F)(F)C(F)(F)C(F)(F)C(F)(F)C(F)(F)C(F)(F)F", "mean angular velocity of exposed larvae": 0.153}
{"Molecule": "NC(O)(C(F)(F)F)C(F)(F)F", "mean angular velocity of exposed larvae": 0.0181}
{"Molecule": "NC(=O)C(F)(F)C(F)(F)C(F)(F)C(F)(F)F [Nonafluoropentanamide]", "mean angular velocity of exposed larvae": 0.078}
{"Molecule": "C[Si](C)(C)C(F)(F)C(F)(F)C(F)(F)F", "mean angular velocity of exposed larvae": 0.0925}
